B1: Caulobacter ParB omega fusion; a variant is named by its letters at X, in order, B8GW30 (parent)
chain: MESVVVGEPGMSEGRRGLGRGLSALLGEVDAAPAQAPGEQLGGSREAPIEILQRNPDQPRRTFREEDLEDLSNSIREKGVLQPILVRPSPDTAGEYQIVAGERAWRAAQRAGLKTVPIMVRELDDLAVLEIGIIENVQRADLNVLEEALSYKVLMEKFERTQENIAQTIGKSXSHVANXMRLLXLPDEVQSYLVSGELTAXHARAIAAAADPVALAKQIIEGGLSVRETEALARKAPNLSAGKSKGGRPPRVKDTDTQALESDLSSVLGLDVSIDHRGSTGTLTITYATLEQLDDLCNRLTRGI

- Variants of: B1
- assayExplanation: one-hybrid fitness for binding parS DNA (scaled: cognate 1, non-cognate 0); higher = stronger binding
- studyConditions: with parS DNA site
Over roughly 81,000 sequences, “one-hybrid fitness for binding parS DNA” has its median near -0.17; the highest 2% begin near 0.51. Many of the other results were omitted from the sample, so the highest values are more common in it than they were.
outcomeMeasure: one-hybrid fitness for binding parS DNA

1. ARWW ... 0.23
2. RYTT ... 0.884
3. SSKF ... ≤ 0.2
4. RMVG ... 0.971
5. RYTP ... ≤ 0.2
6. RPNG ... ≤ 0.2
7. RMKR ... ≤ 0.2
8. LNGG ... ≤ 0.2
9. RYTC ... 0.903
10. RCNG ... 0.966
11. RENG ... 0.302
12. RYTD ... ≤ 0.2
13. RDNG ... ≤ 0.2
14. RMKG ... 0.929
15. VQVL ... ≤ 0.2
16. YAQR ... ≤ 0.2
17. NTIS ... ≤ 0.2
18. RSNK ... ≤ 0.2
19. NGLR ... ≤ 0.2
20. DTPG ... ≤ 0.2
21. RSYF ... 0.233
22. SHST ... ≤ 0.2
